Biological target: T1, recombinant human FGF23 (R179Q) (human, UniProt Q9GZV9 25-251)
T1 construct: also called rhFGF23(R179Q); hFGF23(R179Q)
T1 sequence (looked up): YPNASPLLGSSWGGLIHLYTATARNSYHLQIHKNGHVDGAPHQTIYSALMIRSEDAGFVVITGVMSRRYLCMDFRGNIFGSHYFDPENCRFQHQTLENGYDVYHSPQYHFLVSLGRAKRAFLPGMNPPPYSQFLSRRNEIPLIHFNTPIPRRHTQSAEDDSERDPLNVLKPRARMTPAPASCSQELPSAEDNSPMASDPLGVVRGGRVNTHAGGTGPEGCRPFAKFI
Test: SPR, antibody captured on hIgG chip, rhFGF23(R179Q) analyte
Endpoint label: Ratio (variant antibody KD/burosumab KD)

[[record]]
binder = "UGX203 (antibody, human IgG1, kappa, V domains shown, also called HC:S59E, LC:S52D; S59E/S52D) VH: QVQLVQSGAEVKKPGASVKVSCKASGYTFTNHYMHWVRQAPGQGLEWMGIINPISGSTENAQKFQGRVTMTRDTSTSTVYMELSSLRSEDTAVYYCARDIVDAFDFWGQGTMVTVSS VL: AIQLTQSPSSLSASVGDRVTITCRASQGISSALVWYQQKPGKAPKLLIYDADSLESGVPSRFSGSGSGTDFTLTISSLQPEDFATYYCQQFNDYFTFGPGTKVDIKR"
experimental_value = 2

[[record]]
binder = "UGX145 (antibody, human IgG1, kappa, V domains shown, also called UGX042; LC:Y94E) VH: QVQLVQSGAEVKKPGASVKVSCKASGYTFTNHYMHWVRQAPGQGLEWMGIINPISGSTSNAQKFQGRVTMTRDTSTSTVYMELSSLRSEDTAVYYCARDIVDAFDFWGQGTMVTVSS VL: AIQLTQSPSSLSASVGDRVTITCRASQGISSALVWYQQKPGKAPKLLIYDASSLESGVPSRFSGSGSGTDFTLTISSLQPEDFATYYCQQFNDEFTFGPGTKVDIKR"
experimental_value = 2

[[record]]
binder = "UGX156 (antibody, human IgG1, kappa, V domains shown, also called HC:I54F; I54F) VH: QVQLVQSGAEVKKPGASVKVSCKASGYTFTNHYMHWVRQAPGQGLEWMGIINPFSGSTSNAQKFQGRVTMTRDTSTSTVYMELSSLRSEDTAVYYCARDIVDAFDFWGQGTMVTVSS VL: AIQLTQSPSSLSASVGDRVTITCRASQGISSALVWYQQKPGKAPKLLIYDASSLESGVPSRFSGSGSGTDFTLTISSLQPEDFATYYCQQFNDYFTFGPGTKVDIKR"
experimental_value = 2

